B1: glmS ribozyme (parent)
chain: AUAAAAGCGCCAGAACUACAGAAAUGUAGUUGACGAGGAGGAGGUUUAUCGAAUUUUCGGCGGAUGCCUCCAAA

- Variants of: B1
- protocol.description: self-cleavage kobs at 40 uM GlcN6P; higher = faster cleavage; RNA array
- condition.set: with glucosamine-6-phosphate
Fewer inactive variants are shown than the library holds.
Reported self-cleavage kobs at 40 uM GlcN6P values follow for various variants

Name the recorded self-cleavage kobs at 40 uM GlcN6P for AUAAAAGCGCCAGAACUACAGAAAUGUAGUUGACGAGCAGGAGGUUUAUCGAAUUUUCGGCGGAUGCCUCUAAA [G38C C71U] .
< 1e-05 s⁻¹

Name the recorded self-cleavage kobs at 40 uM GlcN6P for AUAAAAGCGCCUGAACUACAGAAAUGUAGUUGACGAGGAGUAGGUUUAUCGAAUUUUCGGUGGAUGCCUCCAAA [A12U G41U C61U] .
< 1e-05 s⁻¹

Name the recorded self-cleavage kobs at 40 uM GlcN6P for AUAAAAGAGCCAGAACUACAGAAAUGUAGUUGAGGAGGAGGAGGUUUAUCGAAUUUUCGGCGGAUGCCUCCAAA [C8A C34G] .
< 1e-05 s⁻¹

Name the recorded self-cleavage kobs at 40 uM GlcN6P for AUAAAAGCGCCAGAACUACAGAAAUGUAGUUGACGAGGAGGAGGUUUAUCGAAUUUUCGGCGGGUGCCUCCAAA [A64G] .
0.000914 s⁻¹

Name the recorded self-cleavage kobs at 40 uM GlcN6P for AUAAAAGCGCCAGAACUACAGAAAUGUAGUUGACGAGGAGGAGGUUUAUCGAAUUUUCGGCAGUUGCCUCCAAA [G62A A64U] .
< 1e-05 s⁻¹

Name the recorded self-cleavage kobs at 40 uM GlcN6P for AUAAAAGCGCCAGAACUACAGAAAUGUAGUUGACGAGGAGGAGGUUUAUCGAAUUUUCGGCAGAUGACUCCAAA [G62A C67A] .
< 1e-05 s⁻¹

Name the recorded self-cleavage kobs at 40 uM GlcN6P for AUAAAAGCACCAGAACUACAGAAAUGUAGUUGACGAGGAGGAGGUUUAUCGAAUUUUCGGCGGAUGCCUACAAA [G9A C70A] .
< 1e-05 s⁻¹

Name the recorded self-cleavage kobs at 40 uM GlcN6P for AUAAAAGCGCCAGAACUACAGAAAUGUAGUUGACGAGGAGGAGGUUUCUCUAAUUUUCGGCGGAUGCCUCCAAA [A48C G51U] .
< 1e-05 s⁻¹

New cases:
Name the recorded self-cleavage kobs at 40 uM GlcN6P for AUAAAAGCGCCACAACUACAGAAAUGUAGUUGACGAGGAGGAAGUUUAUCGAAUUUUCGGCGAGUGCCUCCAAA [G13C G43A G63A A64G] .
< 1e-05 s⁻¹

Name the recorded self-cleavage kobs at 40 uM GlcN6P for AUAAAAGCGCCAGAACUACAGAAAUGUAGUUGACGAGGAGGAGGUUUAUCGAACUUUCGGCGGAUGCCACCAAA [U54C U69A] .
3.96e-05 s⁻¹

Name the recorded self-cleavage kobs at 40 uM GlcN6P for AUAAAAGCUCCAGAACUACAGAAAUGUAGUUGACGAGGAGGAGGUUUAUCGAAUUUUCGGCGGAUGCCUUCAAA [G9U C70U] .
< 1e-05 s⁻¹

Name the recorded self-cleavage kobs at 40 uM GlcN6P for AUAAAAGCGCCAGAACUACAGAAAUGUAGUUGACGAGGAGGAGGUCUAUCGAAUUUUCGGCGGGUGCCUCCAAA [U46C A64G] .
0.000191 s⁻¹

Name the recorded self-cleavage kobs at 40 uM GlcN6P for AUAAAAGCGCCAGAACUACAGAAAUGUAGUUGACGAGUAGGAGGUUUAUCGAAUUUUCAGCGGAUGCGUCCAAA [G38U G59A C68G] .
6.06e-05 s⁻¹

Name the recorded self-cleavage kobs at 40 uM GlcN6P for AUAAAUGCGCCAGAACUACAGAAAUGUAGUUGACGAGGAGGAGGUUUAUCGAAUUUUCAGCGGAUGCCUCCAAA [A6U G59A] .
< 1e-05 s⁻¹

Name the recorded self-cleavage kobs at 40 uM GlcN6P for AUAAAAGCGCCAGAACUACAGAAAUGUAGUUGACGAGGAGGAGGUUUAUCGAAUGUUCGGCGGAUACCUCCAAA [U55G G66A] .
0.000461 s⁻¹

Name the recorded self-cleavage kobs at 40 uM GlcN6P for AUAAAAGCGACAGAACUACAGAAAUGUAGCUGACGAGGAGGAGGUUUAUCGAAUUUUCGGCGGAUGCCUCCAAA [C10A U30C] .
< 1e-05 s⁻¹
